TESTED_SYSTEM: PAK3 (Homo sapiens, UniProt O75914)
Construct: purchased Eurofins (radiometric) / Eurofins DiscoverX scanMAX / Reaction Biology / SignalChem
Sequence (O75914 whole entry): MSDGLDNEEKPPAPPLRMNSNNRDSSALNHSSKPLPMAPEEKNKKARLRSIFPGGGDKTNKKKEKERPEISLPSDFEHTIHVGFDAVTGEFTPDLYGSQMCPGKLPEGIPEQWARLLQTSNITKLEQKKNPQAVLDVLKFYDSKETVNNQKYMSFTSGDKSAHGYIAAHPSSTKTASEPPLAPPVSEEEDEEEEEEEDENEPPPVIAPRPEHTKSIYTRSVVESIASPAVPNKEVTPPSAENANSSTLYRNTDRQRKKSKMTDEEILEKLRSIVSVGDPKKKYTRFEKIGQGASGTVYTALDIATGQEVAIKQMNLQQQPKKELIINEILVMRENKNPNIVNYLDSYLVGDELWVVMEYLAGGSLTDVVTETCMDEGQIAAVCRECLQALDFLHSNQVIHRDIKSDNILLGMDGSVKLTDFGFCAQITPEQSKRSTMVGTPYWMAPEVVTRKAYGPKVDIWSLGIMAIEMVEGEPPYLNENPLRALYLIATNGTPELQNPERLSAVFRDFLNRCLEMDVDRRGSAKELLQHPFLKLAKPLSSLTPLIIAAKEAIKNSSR
PROCEDURE_SUMMARY: Eurofins enzymatic radiometric kinase assay
Assay type: biochemical
CONDITION_PARAMETERS: ATP at Km, duplicate
VALUE_TYPE: PAK3 PoC at 1 μM (PoC)

MOLECULE | READING_UNIT | ASSAY_VALUE
CC(C)(O)C#Cc1ccc2[nH]c3c(c2c1)-c1nc(N)ncc1CC3 | PoC | 86
COC(C)(C)C#Cc1ccc2[nH]c3c(c2c1)-c1nc(N)ncc1CCC3 | PoC | 100
CC(C)(O)C#Cc1ccc2[nH]c3c(c2c1)-c1nc(N)ncc1CCC3 [AMG28, reference compound] | PoC | 86
CC(C)(O)C#Cc1ccc2[nH]cc(-c3ccnc(N)n3)c2c1 | PoC | 104
CC(C)(O)C#Cc1ccc2[nH]c3c(c2c1)-c1nc(N)ncc1CCCC3 | PoC | 100

###

TESTED_SYSTEM: PAK4 (Homo sapiens, UniProt O96013)
Construct: purchased Eurofins (radiometric) / Eurofins DiscoverX scanMAX / Reaction Biology / SignalChem
Sequence (O96013 whole entry): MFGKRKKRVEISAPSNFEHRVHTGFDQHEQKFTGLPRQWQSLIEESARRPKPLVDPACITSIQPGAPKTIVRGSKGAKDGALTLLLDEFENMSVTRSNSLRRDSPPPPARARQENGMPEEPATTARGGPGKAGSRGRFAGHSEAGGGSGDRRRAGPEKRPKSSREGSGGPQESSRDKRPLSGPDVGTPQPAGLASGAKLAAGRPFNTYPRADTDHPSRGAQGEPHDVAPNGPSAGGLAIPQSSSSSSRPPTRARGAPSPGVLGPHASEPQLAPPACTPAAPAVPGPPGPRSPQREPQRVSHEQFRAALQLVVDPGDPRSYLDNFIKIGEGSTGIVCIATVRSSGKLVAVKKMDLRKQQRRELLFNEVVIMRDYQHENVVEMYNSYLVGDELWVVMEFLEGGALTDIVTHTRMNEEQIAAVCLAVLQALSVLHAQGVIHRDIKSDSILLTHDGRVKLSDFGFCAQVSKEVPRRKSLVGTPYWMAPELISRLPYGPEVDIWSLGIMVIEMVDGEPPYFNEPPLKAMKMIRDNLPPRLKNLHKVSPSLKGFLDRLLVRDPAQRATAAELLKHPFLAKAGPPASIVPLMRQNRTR
PROCEDURE_SUMMARY: Eurofins enzymatic radiometric kinase assay
Type: biochemical
CONDITION_PARAMETERS: ATP at Km, duplicate
Attribute: PAK4 PoC at 1 μM

COMPOUND | READING_UNIT | PAK4 PoC at 1 μM
CC(C)(O)C#Cc1ccc2[nH]c3c(c2c1)-c1nc(N)ncc1CC3 | PoC | 58
COC(C)(C)C#Cc1ccc2[nH]c3c(c2c1)-c1nc(N)ncc1CCC3 | PoC | 91
CC(C)(O)C#Cc1ccc2[nH]c3c(c2c1)-c1nc(N)ncc1CCC3 [AMG28, reference compound] | PoC | 8
CC(C)(O)C#Cc1ccc2[nH]cc(-c3ccnc(N)n3)c2c1 | PoC | 30
CC(C)(O)C#Cc1ccc2[nH]c3c(c2c1)-c1nc(N)ncc1CCCC3 | PoC | 67

###

TESTED_SYSTEM: MARK3 (Homo sapiens, UniProt P27448)
Construct: purchased Eurofins (radiometric) / Eurofins DiscoverX scanMAX / Reaction Biology / SignalChem
Sequence (P27448 whole entry): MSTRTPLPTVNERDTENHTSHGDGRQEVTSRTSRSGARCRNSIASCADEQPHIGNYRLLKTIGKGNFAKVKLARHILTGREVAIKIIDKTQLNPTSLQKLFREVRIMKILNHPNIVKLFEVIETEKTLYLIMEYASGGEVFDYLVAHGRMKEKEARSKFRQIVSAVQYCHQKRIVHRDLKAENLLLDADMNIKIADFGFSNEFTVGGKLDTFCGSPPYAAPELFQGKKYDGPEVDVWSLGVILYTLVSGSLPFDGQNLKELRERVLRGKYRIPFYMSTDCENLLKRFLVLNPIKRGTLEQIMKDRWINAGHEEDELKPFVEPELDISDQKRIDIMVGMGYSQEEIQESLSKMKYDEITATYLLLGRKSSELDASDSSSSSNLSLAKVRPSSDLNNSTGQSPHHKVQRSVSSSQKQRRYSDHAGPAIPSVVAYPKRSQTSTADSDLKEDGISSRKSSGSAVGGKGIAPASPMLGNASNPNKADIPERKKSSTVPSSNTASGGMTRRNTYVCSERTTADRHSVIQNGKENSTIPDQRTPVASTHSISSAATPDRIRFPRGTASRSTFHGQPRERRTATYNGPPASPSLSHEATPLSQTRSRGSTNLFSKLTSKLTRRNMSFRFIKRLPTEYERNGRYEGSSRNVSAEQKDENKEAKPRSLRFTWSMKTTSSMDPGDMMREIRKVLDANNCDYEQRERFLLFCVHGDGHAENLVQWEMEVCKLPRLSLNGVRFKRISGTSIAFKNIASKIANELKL
PROCEDURE_SUMMARY: Eurofins enzymatic radiometric kinase assay
Format: biochemical
CONDITION_PARAMETERS: ATP at Km, duplicate
Entries annotated with measured MARK3 PoC at 1 μM

COMPOUND | TESTED_SYSTEM | MARK3 PoC at 1 μM, PoC
CC(C)(O)C#Cc1ccc2[nH]c3c(c2c1)-c1nc(N)ncc1CCC3 [AMG28, reference compound] | MARK3 (Homo sapiens, UniProt P27448) | 12
CC(C)(O)C#Cc1ccc2[nH]c3c(c2c1)-c1nc(N)ncc1CC3 | MARK3 (Homo sapiens, UniProt P27448) | 56
CC(C)(O)C#Cc1ccc2[nH]c3c(c2c1)-c1nc(N)ncc1CCCC3 | MARK3 (Homo sapiens, UniProt P27448) | 76
COC(C)(C)C#Cc1ccc2[nH]c3c(c2c1)-c1nc(N)ncc1CCC3 | MARK3 (Homo sapiens, UniProt P27448) | 104
CC(C)(O)C#Cc1ccc2[nH]cc(-c3ccnc(N)n3)c2c1 | MARK3 (Homo sapiens, UniProt P27448) | 46

These measurements were taken from paper PMC10104807.
